Test system: SR leukemia
ASSAY_TEXT: NCI-60 one-dose screen, 48 h (100 = growth as untreated, 0 = no growth, -100 = all killed)
CONDITION_PARAMETERS: 10 µM unless noted
Compounds without any hit were thinned out: in the full panel of roughly 83,000, 20% have a hit.
TEST_READOUT: growth (%)
// return numeric value only (unit: %, not printed)

>>> reported_result("CCNS(=O)(=O)c1ncnc2nc[nH]c12")
101

Would you mind telling me what growth value was observed for `CCCCCN(CCCCC)CCC[C@@H](C)[C@H]1CC[C@H]2[C@@H]3[C@H](OCCCN)C[C@@H]4C[C@H](OCCCN)CC[C@]4(C)[C@H]3C[C@H](OCCCN)[C@]12C` ?
19.2

Would you mind telling me what growth value was observed for C=C1CC[C@@H]2[C@](C)(COC(C)=O)[C@H](OC(C)=O)CC[C@@]2(C)[C@@H]1CC(Nc1ccc(S(=O)(=O)Nc2nc(C)cc(C)n2)cc1)C1=CCOC1=O (some centres undefined) ?
22.2

Would you mind telling me what growth value was observed for Cc1nn(-c2nc3ccccc3[nH]2)c2c1C(c1ccc3c(c1)OCO3)CC(=O)N2 (centres undefined) ?
14
